experiment description: APR_HepG2_P-H2AX_72hr: Apredica 72-hour HepG2 Assay for H2AX Phosphorylation (AID 2282916);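 further: phospho-histone H2A.x immunostain intensity per cell marking DNA damage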
condition description: imaging, actives raise or lower the signal
The source made the active and inactive calls. How the source made its calls: active means hit-call score of the fitted dose curve at least 0.9, where 1 is the maximum; inactive means score below 0.9.
Outcomes: T = active, F = inactive

>  <compound>
CCc1cc(C2=C(C(=O)O)N(c3ccccc3C(F)(F)F)S(=O)(=O)c3ccccc32)cc2c1OCO2

>  <label value>
F

$$$$
>  <compound>
CC(C)NCC(O)c1ccc(O)c(O)c1 (stereo not drawn)

>  <label value>
T

$$$$
>  <compound>
C#CC(O)C(CC)CCCC (stereo not drawn)

>  <label value>
F

$$$$
>  <compound>
C/C=C/C=C/C(=O)O

>  <label value>
T

$$$$
>  <compound>
O=C1NC(=O)C(c2ccccc2)(c2ccccc2)N1

>  <label value>
F

$$$$
>  <compound>
CCCCC(CC)CO (stereo not drawn)

>  <label value>
F

$$$$
>  <compound>
O=C(Oc1ccccc1)c1cccc(C(=O)Oc2ccccc2)c1

>  <label value>
F

$$$$
>  <compound>
OCC(CO)n1cnc(-c2ccc(F)cc2)c1-c1ccnc(Oc2ccccc2)n1

>  <label value>
F

$$$$
>  <compound>
CN(C)C(=O)NC1(c2ccccc2)CCN(CC[C@@]2(c3ccc(F)c(F)c3)CN(C(=O)c3ccccc3)CCO2)CC1

>  <label value>
T

$$$$
>  <compound>
CC(C)(O)c1ccc(CNC(=O)c2cccnc2Oc2ccc(F)cc2)cc1

>  <label value>
F

$$$$
>  <compound>
CC(N)=O

>  <label value>
F

$$$$
>  <compound>
CC(COCC(C)OC(=O)c1ccccc1)OC(=O)c1ccccc1 (stereo not drawn)

>  <label value>
F

$$$$
>  <compound>
O=C(O)CN(CC(=O)O)CC(=O)O

>  <label value>
F

$$$$

* * *

measured target: Retinoic acid receptor RXR-alpha (Homo sapiens) (UniProt P19793)
Sequence (P19793 whole entry, looked up): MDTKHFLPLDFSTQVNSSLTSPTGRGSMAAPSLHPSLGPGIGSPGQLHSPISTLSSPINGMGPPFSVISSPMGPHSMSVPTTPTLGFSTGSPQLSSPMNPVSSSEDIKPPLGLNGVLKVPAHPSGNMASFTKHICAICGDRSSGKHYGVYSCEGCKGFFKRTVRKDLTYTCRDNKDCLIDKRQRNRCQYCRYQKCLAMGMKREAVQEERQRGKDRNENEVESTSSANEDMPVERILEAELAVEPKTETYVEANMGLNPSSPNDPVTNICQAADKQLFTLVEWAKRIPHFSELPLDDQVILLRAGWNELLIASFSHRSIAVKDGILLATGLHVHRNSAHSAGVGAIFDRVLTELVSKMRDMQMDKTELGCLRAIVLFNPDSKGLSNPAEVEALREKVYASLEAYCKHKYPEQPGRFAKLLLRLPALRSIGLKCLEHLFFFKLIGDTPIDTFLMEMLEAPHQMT
experiment description: ATG_RXRa_TRANS: Attagene TRANS-FACTORIAL HepG2 Assay for human Retinoid X Receptor alpha (RXRa) (AID 2283012)
Results filed as inconclusive are left out. Calls of active or inactive are those of the source. The calls were made as follows: active = hit-call score of the fitted dose curve at least 0.9, where 1 is the maximum; inconclusive = response in the unintended direction; inactive = score below 0.9.
Labels: active, inactive

>  <compound>
CCCCc1nc2cccnc2n1Cc1ccc(-c2ccccc2-c2nnn[nH]2)cc1

>  <label value>
inactive

$$$$
>  <compound>
Cc1ccc(C(C)(C)C)c(O)c1

>  <label value>
inactive

$$$$
>  <compound>
CC(N)=O

>  <label value>
inactive

$$$$
>  <compound>
COC(=O)[C@H]1[C@H]2C[C@@H]3c4[nH]c5cc(OC)ccc5c4CCN3C[C@H]2C[C@@H](OC(=O)c2cc(OC)c(OC)c(OC)c2)[C@@H]1OC

>  <label value>
inactive

$$$$
>  <compound>
Nc1nc(=S)c2[nH]cnc2[nH]1

>  <label value>
inactive

$$$$
>  <compound>
NCCOCCOCCN

>  <label value>
inactive

$$$$
>  <compound>
CC(=O)OCC(COC(C)=O)OC(C)=O

>  <label value>
inactive

$$$$
>  <compound>
CC(=O)O

>  <label value>
inactive

$$$$
>  <compound>
CC(=O)CC(c1ccccc1)c1c(O)c2ccccc2oc1=O (configuration not stated)

>  <label value>
inactive

$$$$
>  <compound>
CCOCCOCCO

>  <label value>
inactive

$$$$
>  <compound>
C=CCc1ccc(OC)c(OC)c1

>  <label value>
inactive

$$$$
>  <compound>
S=c1[nH]c2ccccc2s1

>  <label value>
inactive

$$$$
>  <compound>
CN(C)C(=O)NC1(c2ccccc2)CCN(CC[C@@]2(c3ccc(F)c(F)c3)CN(C(=O)c3ccccc3)CCO2)CC1

>  <label value>
inactive

$$$$
>  <compound>
COc1ccc(C(=O)Nc2nc3ccccc3c(NCc3ccccc3)c2C#N)cc1

>  <label value>
inactive

$$$$
>  <compound>
O=C1NC(=O)C(c2ccccc2)(c2ccccc2)N1

>  <label value>
inactive

$$$$
>  <compound>
CN(C)C(=O)NC1(c2ccccc2)CCN(CCC[C@]2(c3ccc(Cl)c(Cl)c3)CCCN(C(=O)c3ccccc3)C2)CC1

>  <label value>
active

$$$$
>  <compound>
Cn1cnc2c1c(=O)[nH]c(=O)n2C

>  <label value>
inactive

$$$$
>  <compound>
CSc1ccc(Oc2ccc(S(N)(=O)=O)cc2CN(C)C)cc1C

>  <label value>
inactive

$$$$
>  <compound>
Nc1nc(Cl)nc2c1ncn2[C@H]1C[C@H](O)[C@@H](CO)O1

>  <label value>
inactive

$$$$
>  <compound>
COC(=O)CCCC(=O)OC

>  <label value>
inactive

$$$$
>  <compound>
CC(=O)O[C@]1(C(C)=O)CC[C@H]2[C@@H]3C=C(Cl)C4=CC(=O)[C@@H]5C[C@@H]5[C@]4(C)[C@H]3CC[C@@]21C

>  <label value>
inactive

$$$$
>  <compound>
CCc1nc(N)nc(N)c1-c1ccc(Cl)cc1

>  <label value>
inactive

$$$$
>  <compound>
CCCCCCCCCC[N+](C)(C)[O-]

>  <label value>
inactive

$$$$
>  <compound>
O=[Si]=O

>  <label value>
inactive

$$$$
>  <compound>
CCCCOC(=O)CCCCC(=O)OCCCC

>  <label value>
inactive

$$$$
>  <compound>
NC(=Nc1ccccc1)Nc1ccccc1

>  <label value>
inactive

$$$$
>  <compound>
O=C1CCCCC1

>  <label value>
inactive

$$$$

* * *

experiment description: IUF_NPC1_viability_72hr: Viability Assessment at 72 hours in the Leibniz Research Institute for Environmental Medicine (IUF) Neural Progenitor Cell Proliferation Assay (NPC1) (AID 2284209)
The source made the active and inactive calls. The calls were made as follows: active = hit-call score of the fitted dose curve at least 0.9, where 1 is the maximum; inactive = score below 0.9.
Outcome codes: yes (active), no (inactive)

>  <molecule>
CN(C)CCCN1c2ccccc2Sc2ccc(Cl)cc21

>  <label value>
yes

$$$$
>  <molecule>
OCC(O)CO

>  <label value>
no

$$$$
>  <molecule>
O=C1NC(=O)C(c2ccccc2)(c2ccccc2)N1

>  <label value>
no

$$$$
>  <molecule>
CC(=O)CC(c1ccccc1)c1c(O)c2ccccc2oc1=O (centres undefined)

>  <label value>
no

$$$$

* * *

experiment description: ATG_EGR_CIS: Attagene CIS-FACTORIAL HepG2 Assay for human Early Growth Response 1 (EGR1) (AID 2282938)
condition description: HepG2 Attagene CIS-FACTORIAL EGR reporter mRNA; actives raise or lower the signal
Calls of active or inactive are those of the source. Rule for the calls: active = hit-call score of the fitted dose curve at least 0.9, where 1 is the maximum; inactive = score below 0.9.
Outcome codes: active, inactive

>  <compound>
CCc1cc(C2=C(C(=O)O)N(c3ccccc3C(F)(F)F)S(=O)(=O)c3ccccc32)cc2c1OCO2

>  <label value>
inactive

$$$$
>  <compound>
CC(=O)O

>  <label value>
inactive

$$$$
>  <compound>
O=C1OC(c2ccc(O)cc2)(c2ccc(O)cc2)c2ccccc21

>  <label value>
active

$$$$
>  <compound>
CCCCCCC(C=O)=Cc1ccccc1

>  <label value>
inactive

$$$$
>  <compound>
CSc1ccc(Oc2ccc(S(N)(=O)=O)cc2CN(C)C)cc1C

>  <label value>
inactive

$$$$
>  <compound>
O=C1c2c(O)cccc2Cc2cccc(O)c21

>  <label value>
inactive

$$$$
>  <compound>
CCCCCCCCCCCCCCOS(=O)(=O)O

>  <label value>
inactive

$$$$
>  <compound>
CC(COCC(C)OC(=O)c1ccccc1)OC(=O)c1ccccc1 (stereo not given)

>  <label value>
inactive

$$$$
>  <compound>
CC(=O)S[C@H](C(=O)N[C@H]1Cc2ccccc2[C@H]2CCC[C@@H](C(=O)O)N2C1=O)C(C)C

>  <label value>
inactive

$$$$
>  <compound>
CC(C)OC(=O)C(C)(C)Oc1ccc(C(=O)c2ccc(Cl)cc2)cc1

>  <label value>
active

$$$$
>  <compound>
Cc1ccc(-c2cc(C(F)(F)F)nn2-c2ccc(S(N)(=O)=O)cc2)cc1

>  <label value>
inactive

$$$$
>  <compound>
CN(C)CCCN1c2ccccc2Sc2ccc(Cl)cc21

>  <label value>
active

$$$$
>  <compound>
CCc1nc(N)nc(N)c1-c1ccc(Cl)cc1

>  <label value>
active

$$$$
>  <compound>
CCCCC(CC)COP(=O)(OCC(CC)CCCC)OCC(CC)CCCC (stereo not given)

>  <label value>
inactive

$$$$
>  <compound>
C#CC(O)C(CC)CCCC (stereo not given)

>  <label value>
inactive

$$$$
>  <compound>
CCC(C)N(C)C(=O)c1cc2ccccc2c(-c2ccccc2Cl)n1 (stereo not given)

>  <label value>
active

$$$$
>  <compound>
Nc1nc(=S)c2[nH]cnc2[nH]1

>  <label value>
inactive

$$$$
>  <compound>
Cc1cc(SC2=C(O)C[C@@](CCc3ccc(N)cc3)(C(C)C)OC2=O)c(C(C)(C)C)cc1CO

>  <label value>
inactive

$$$$
>  <compound>
CO[C@@H]1COCC[C@@H]1N[C@@H]1CC[C@@](C(=O)N2CCc3ncc(C(F)(F)F)cc3C2)(C(C)C)C1

>  <label value>
inactive

$$$$
>  <compound>
O=C1CCCCC1

>  <label value>
inactive

$$$$
>  <compound>
CC(C)NCC(O)c1ccc(O)c(O)c1 (stereo not given)

>  <label value>
inactive

$$$$
>  <compound>
CCCCC(CC)COC(=O)CCCCCCCC(=O)OCC(CC)CCCC (stereo not given)

>  <label value>
inactive

$$$$
>  <compound>
S=c1[nH]c2ccccc2s1

>  <label value>
inactive

$$$$
>  <compound>
O=C(O)c1cccnc1

>  <label value>
inactive

$$$$
>  <compound>
CCCCc1nc2cccnc2n1Cc1ccc(-c2ccccc2-c2nnn[nH]2)cc1

>  <label value>
inactive

$$$$
